This collection of values is drawn from patent US11986471B2.

- Test system: HAP1 MTAP-intact
- test: SDMA in-cell western assay, HAP1 MTAP-intact cell line
- Format: cell-based
- measurement.conditions: Homo sapiens
- Source text: Table 1a also indicates IC50 values in an MTAP-isogenic cell line pair for exemplary compounds in an SDMA in-cell western assay (columns 7-8). HAP1 MTAP-intact is a cell line in which endogenous levels of MTAP are expressed, and HAP1 MTAP-deleted is an MTAP-null cell line. […] Compounds with a ratio in the SDMA in-cell western assay of equal to or greater than 3 fold are considered MTAP-selective.
pIC50: −log10 of the molar value.
measured.metric: pIC50

smiles.notation	observed.value
CC(=O)N1CCN(c2cc(C(=O)NC[C@H](O)CN3CCc4cc(OCc5ocnc5C)ccc4C3)cc(NC3CCC3)n2)CC1	> 6.00
CCN(C)c1cc(C(=O)NC[C@H](O)CN2CCc3cc(OCc4ocnc4C)ccc3C2)cc(NC2CCC2)n1	≤ 5.00
O=C(NC[C@H](O)CN1CCc2cc(OCc3cnco3)c(F)c(F)c2C1)c1ccnc(NC2CCC2)c1	≤ 5.00
Cc1ncoc1COc1ccc2c(c1I)CCN(C[C@@H](O)CNC(=O)c1ccnc(NC3CCC3)c1)C2	≤ 5.00

Would you mind telling me what pIC50 value was observed for Cc1ncoc1COc1ccc2c(c1)CCN(C[C@@H](O)CNC(=O)c1cc(NC3COC3)nc(N3CCCCC3)n1)C2 ?
> 6.00

Please do the same for Cc1c(OCc2cnco2)ccc2c1CCN(C[C@@H](O)CNC(=O)c1ccnc(NC3CCN(C(=O)C(C)(C)C)CC3)c1)C2 as well.
≤ 5.00

====

- assayed.system: PRMT5 (Homo sapiens)
- Construct: purchased Viva (custom protein)
- Sequence (O14744 whole entry): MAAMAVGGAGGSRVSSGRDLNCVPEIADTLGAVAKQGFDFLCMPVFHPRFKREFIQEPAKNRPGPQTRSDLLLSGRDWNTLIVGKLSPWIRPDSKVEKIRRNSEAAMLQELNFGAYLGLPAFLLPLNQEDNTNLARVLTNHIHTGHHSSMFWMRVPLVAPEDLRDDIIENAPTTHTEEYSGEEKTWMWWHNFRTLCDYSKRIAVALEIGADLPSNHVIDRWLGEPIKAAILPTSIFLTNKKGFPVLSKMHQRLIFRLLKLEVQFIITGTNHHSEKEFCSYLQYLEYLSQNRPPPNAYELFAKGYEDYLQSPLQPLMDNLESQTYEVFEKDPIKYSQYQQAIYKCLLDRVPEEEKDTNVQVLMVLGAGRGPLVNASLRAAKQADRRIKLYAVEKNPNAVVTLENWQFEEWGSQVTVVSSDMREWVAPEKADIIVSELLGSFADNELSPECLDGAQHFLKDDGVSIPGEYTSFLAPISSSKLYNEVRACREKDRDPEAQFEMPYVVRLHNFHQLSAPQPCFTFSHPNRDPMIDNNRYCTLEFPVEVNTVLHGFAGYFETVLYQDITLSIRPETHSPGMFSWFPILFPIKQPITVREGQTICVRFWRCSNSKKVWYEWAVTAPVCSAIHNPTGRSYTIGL
- Sequence (Q9BQA1 whole entry partner): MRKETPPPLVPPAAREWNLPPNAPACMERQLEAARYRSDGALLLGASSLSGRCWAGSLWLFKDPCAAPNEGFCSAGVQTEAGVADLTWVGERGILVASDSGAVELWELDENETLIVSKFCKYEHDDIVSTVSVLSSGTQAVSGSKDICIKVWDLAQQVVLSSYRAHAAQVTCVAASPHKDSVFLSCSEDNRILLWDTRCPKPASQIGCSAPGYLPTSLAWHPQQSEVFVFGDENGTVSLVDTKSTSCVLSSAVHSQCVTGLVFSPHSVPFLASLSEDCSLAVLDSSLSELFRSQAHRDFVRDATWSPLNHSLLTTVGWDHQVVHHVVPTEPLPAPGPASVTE
- test: PRMT5 IC50 assay in the presence of SAM as cofactor
- Assay type: biochemical
Here the recorded IC50 is given for each entry.

smiles.notation	observed.value
CC(=O)N1CCN(c2nc(NC3COC3)cc(C(=O)NC[C@H](O)CN3CCc4cc(OCc5cnco5)ccc4C3)n2)CC1	0.05 to 0.5 µM
O=C(NC[C@H](O)CN1CCc2cc(OCc3cnco3)ccc2C1)c1cc(NC2CCC2)nc(N2CCCCC2)c1	0.5 to 5 µM
Cc1ncoc1COc1ccc2c(c1Cl)CCN(C[C@@H](O)CNC(=O)c1ccnc(NC3CCC3)c1)C2	0.05 to 0.5 µM

Would you mind telling me what IC50 value was observed for Cc1c(OCc2cnco2)ccc2c1CCN(C[C@@H](O)CNC(=O)c1ccnc(N[C@H]3C[C@@H](CO)C3)c1)C2 ?
0.05 to 0.5 µM

Please do the same for CC(C)(C)N1CCN(c2nc(NC3COC3)cc(C(=O)NC[C@H](O)CN3CCc4c(ccc(OCc5cnco5)c4Cl)C3)n2)CC1 as well.
0.05 to 0.5 µM

Please do the same for Cc1c(OCc2cnco2)ccc2c1CCN(C[C@@H](O)CNC(=O)c1ccnc(N[C@H]3C[C@H](CO)C3)c1)C2 as well.
0.5 to 5 µM

Please do the same for Cc1ncoc1COc1ccc2c(c1C)CCN(C[C@@H](O)CNC(=O)c1cc(NC3COC3)nc(N3CCN(C(=O)C(C)C)CC3)n1)C2 as well.
0.05 to 0.5 µM

====

- assayed.system: PRMT5 (Homo sapiens)
- Construct: purchased Viva (custom protein)
- test: PRMT5 IC50 assay in the presence of SAM as cofactor
- Type: biochemical
Here the recorded IC50 is given for each entry.

Use the examples below as a reference point.
compound	IC50
Cc1c(OCc2ccnn2C)ccc2c1CCN(C[C@@H](O)CNC(=O)c1ccnc(NC3CCCC3)c1)C2	500 to 5000 nM
COCC(=O)N1CC(Nc2cc(C(=O)NC[C@H](O)CN3CCc4c(ccc(OCc5cnco5)c4C)C3)ncn2)C1	500 to 5000 nM
CCN1CCN(c2cc(C(=O)NC[C@H](O)CN3CCc4cc(OCc5ocnc5C)ccc4C3)cc(NC3CCC3)n2)CC1	50 to 500 nM
CN1CCN(c2nc(NC3COC3)cc(C(=O)NC[C@H](O)CN3CCc4c(ccc(OCc5cnco5)c4Cl)C3)n2)CC1	50 to 500 nM
CC(=O)N1CC(Nc2cc(C(=O)NC[C@H](O)CN3CCc4cc(OCc5ocnc5C)c(F)cc4C3)cc(N3CCCCC3)n2)C1	50 to 500 nM

Field: IC50 (PRMT5 (Homo sapiens)). Entry: CC(=O)N1CC(Nc2cc(C(=O)NC[C@H](O)CN3CCc4cc(OCc5cnco5)ccc4C3)ncn2)C1
500 to 5000 nM

Please do the same for Cc1ncoc1COc1ccc2c(c1)CCN(C[C@@H](O)CNC(=O)c1cc(NC3COC3)nc(N3CCN(C(=O)C(C)C)CC3)n1)C2 as well.
50 to 500 nM

====

- Test system: HAP1 MTAP-intact
- test: SDMA in-cell western assay, HAP1 MTAP-intact cell line
- Assay type: cell-based
- measurement.conditions: Homo sapiens
- Source text: Table 1a also indicates IC50 values in an MTAP-isogenic cell line pair for exemplary compounds in an SDMA in-cell western assay (columns 7-8). HAP1 MTAP-intact is a cell line in which endogenous levels of MTAP are expressed, and HAP1 MTAP-deleted is an MTAP-null cell line. […] Compounds with a ratio in the SDMA in-cell western assay of equal to or greater than 3 fold are considered MTAP-selective.
pIC50: −log10 of the molar value.
measured.metric: pIC50

Use the examples below as a reference point.
compound	observed.value
Cc1ncoc1COc1ccc2c(c1)CCN(C[C@@H](O)CNC(=O)c1cc(NC3CCC3)ncc1Cl)C2 [Compound 607]	> 6.00
O=C(NC[C@H](O)CN1CCc2cc(OCc3cnco3)ccc2C1)c1cc(NC2CCCC2)ncn1 [Compound 372]	> 6.00
O=C(NC[C@H](O)CN1CCc2c(ccc(OCc3cnco3)c2Cl)C1)c1ccnc(NC2CCCC2)c1 [Compound 382]	≤ 5.00
CC(=O)N1CCC(Nc2cccc(C(=O)NC[C@H](O)CN3CCc4cc(OCc5cnco5)ccc4C3)c2)CC1 [Compound 527]	≤ 5.00
CC(=O)N1CC(Nc2cc(C(=O)NC[C@H](O)CN3CCc4c(ccc(OCc5ocnc5C)c4C)C3)nc(N3CCOCC3)n2)C1 [Compound 574]	≤ 5.00
Cc1ncoc1COc1ccc2c(c1)CCN(C[C@@H](O)CNC(=O)c1cc(NC3CC4(CC4)C3)nc(N3CCN(C(=O)C4CC4)CC3)c1)C2 [Compound 611]	> 6.00

Field: pIC50 (HAP1 MTAP-intact). Entry: CCN(C)c1cc(C(=O)NC[C@H](O)CN2CCc3cc(OCc4cnco4)ccc3C2)cc(NC2CCC2)n1 [Compound 438]
5.00 to 6.00

====

- assayed.system: PRMT5 (Homo sapiens)
- Construct: purchased Viva (custom protein)
- test: PRMT5 IC50 assay with no cofactor
- Assay type: biochemical
- Source text: Table 1a indicates IC50 values (μM) against PRMT5 for exemplary compounds in the presence of SAM as cofactor, with no cofactor and with MTA as cofactor, respectively (columns 3-5). […] The Ki values can be calculated from the IC50 values as described in the Examples section. As detailed in the Examples section, for the assay performed in the presence of SAM, IC50=Ki×1.5 (Ki=IC50/1.5). For the assay performed in the presence of MTA, IC50=Ki×13.5 (Ki=IC50/13.5). […]
pIC50: −log10 of the molar value.
Here the recorded pIC50 is given for each entry.

Use the examples below as a reference point.
compound	pIC50
O=C(NC[C@H](O)CN1CCc2c(ccc(OCc3cnco3)c2Cl)C1)c1cc(NC2CCC2)nc(N2CCNCC2)c1	5.30 to 6.30
CCC(=O)N1CC(Nc2cc(C(=O)NC[C@H](O)CN3CCc4cc(OCc5cnco5)ccc4C3)ccn2)C1	5.30 to 6.30
Cc1ncoc1COc1ccc2c(c1)CCN(C[C@@H](O)CNC(=O)c1ccc(OC3CCOCC3)cc1)C2	≤ 5.30
Cc1ncoc1COc1ccc2c(c1)[C@@H](O)CN(C[C@@H](O)CNC(=O)c1ccnc(NC3CCC3)c1)C2 (single isomer, unassigned)	≤ 5.30
Cc1ncoc1COc1ccc2c(c1)CCN(C[C@@H](O)CNC(=O)c1cc(NC3CCN(C(=O)C(C)(C)C)CC3)ncn1)C2	5.30 to 6.30
Cc1c(OCc2cnco2)ccc2c1CCN(C[C@@H](O)CNC(=O)c1cc(N[C@H]3CC[C@H](C(=O)N4CCCCC4)CC3)ncn1)C2	5.30 to 6.30

Would you mind telling me what pIC50 value was observed for CC(=O)N1CC(Nc2cc(C(=O)NC[C@H](O)CN3CCc4c(ccc(OCc5ocnc5C)c4C)C3)nc(N3CCOCC3)n2)C1 ?
≤ 5.30

Please do the same for Cc1c(OCc2cnco2)ccc2c1CCN(C[C@@H](O)CNC(=O)c1ccnc(NC3CN(C(=O)CC(C)C)C3)c1)C2 as well.
≤ 5.30

Please do the same for O=C(NC[C@H](O)CN1CCc2cc(OCc3cnco3)ccc2C1)c1ccc2c(c1)CCN(C(=O)c1ccc(Br)cc1)C2 as well.
5.30 to 6.30

Please do the same for CCN(C)c1nc(NC2COC2)cc(C(=O)NC[C@H](O)CN2CCc3c(ccc(OCc4ocnc4C)c3C)C2)n1 as well.
≤ 5.30

Please do the same for CC(C)(C)C(=O)N1CCC(Nc2cc(C(=O)NC[C@H](O)CN3CCc4c(ccc(OCc5cnco5)c4Cl)C3)ccn2)CC1 as well.
5.30 to 6.30

Please do the same for CC(=O)N1CCC(Nc2cc(C(=O)NC[C@H](O)CN3CCc4nc(OCc5ocnc5C)ccc4C3)ccn2)CC1 as well.
5.30 to 6.30

Please do the same for CC(=O)N1CC(Nc2cc(C(=O)NCC(O)CN3CCc4cc(OCc5ocnc5C)ccc4C3)nc(N3CCCCC3)c2)C1 (stereo not shown) as well.
5.30 to 6.30
